Reported values: IC50 for Acetylcholinesterase (Electrophorus electricus), one per item.
Numbers only here, please. The scale is µM.

Request: Given the entry O=C(CN1CCNCC1)Nc1c2c(nc3ccccc13)CCCC2 , report its measured IC50.
Response: 145

Request: Given the entry Cc1cc(=O)oc2cc(OCCN3CCN(CC(=O)Nc4c5c(nc6ccccc46)CCCC5)CC3)ccc12 , report its measured IC50.
Response: 0.092

Request: Given the entry O=C(CN1CCN(CCCCOc2ccc3ccc(=O)oc3c2)CC1)Nc1c2c(nc3ccccc13)CCCC2 , report its measured IC50.
Response: 0.169

Request: Given the entry Cc1cc(=O)oc2cc(OCCCCCCN3CCN(CC(=O)Nc4c5c(nc6ccccc46)CCCC5)CC3)ccc12 , report its measured IC50.
Response: 0.398

Request: Given the entry COc1cc(=O)oc2cc(OCCCN3CCN(CC(=O)Nc4c5c(nc6ccccc46)CCCC5)CC3)ccc12 , report its measured IC50.
Response: 0.166

Request: Given the entry O=C(CN1CCN(CCCOc2ccc3ccc(=O)oc3c2)CC1)Nc1c2c(nc3ccccc13)CCCC2 , report its measured IC50.
Response: 0.133

---

- target_under_test: Cholinesterase (Equus caballus)
property_label: IC50 (µM)
Numbers only here, please. The scale is µM.

Request: Short answer please: IC50, Cholinesterase (Equus caballus), entry COc1cc(=O)oc2cc(OCCCCN3CCN(CC(=O)Nc4c5c(nc6ccccc46)CCCC5)CC3)ccc12
Response: 3.63

Request: Short answer please: IC50, Cholinesterase (Equus caballus), entry Cc1cc(=O)oc2cc(OCCCCCN3CCN(CC(=O)Nc4c5c(nc6ccccc46)CCCC5)CC3)ccc12
Response: 0.164

Request: Short answer please: IC50, Cholinesterase (Equus caballus), entry Cc1cc(=O)oc2cc(OCCCCCCN3CCN(CC(=O)Nc4c5c(nc6ccccc46)CCCC5)CC3)ccc12
Response: 0.099

Request: Short answer please: IC50, Cholinesterase (Equus caballus), entry COc1cc(=O)oc2cc(OCCCN3CCN(CC(=O)Nc4c5c(nc6ccccc46)CCCC5)CC3)ccc12
Response: 1.83

---

property_label: log10 IC50 (log10 of the value in µM)
Quick note: numbers are log10 of IC50, with µM as the unit.

Request: Short answer please: log10 IC50, Cholinesterase (Equus caballus, UniProt P81908), entry Cc1cc(=O)oc2cc(OCCCCN3CCN(CC(=O)Nc4c5c(nc6ccccc46)CCCC5)CC3)ccc12
Response: -0.83

Request: Short answer please: log10 IC50, Cholinesterase (Equus caballus, UniProt P81908), entry O=C(CN1CCN(CCOc2ccc3c(-c4ccccc4)cc(=O)oc3c2)CC1)Nc1c2c(nc3ccccc13)CCCC2
Response: 0.18

Request: Short answer please: log10 IC50, Cholinesterase (Equus caballus, UniProt P81908), entry O=C(CN1CCN(CCCCCOc2ccc3c(-c4ccccc4)cc(=O)oc3c2)CC1)Nc1c2c(nc3ccccc13)CCCC2
Response: 0.10

Request: Short answer please: log10 IC50, Cholinesterase (Equus caballus, UniProt P81908), entry O=C(CN1CCN(CCCOc2ccc3c(-c4ccccc4)cc(=O)oc3c2)CC1)Nc1c2c(nc3ccccc13)CCCC2
Response: 0.50

Request: Short answer please: log10 IC50, Cholinesterase (Equus caballus, UniProt P81908), entry COc1cc(=O)oc2cc(OCCCCCCN3CCN(CC(=O)Nc4c5c(nc6ccccc46)CCCC5)CC3)ccc12
Response: 0.25

Request: Short answer please: log10 IC50, Cholinesterase (Equus caballus, UniProt P81908), entry O=C(CN1CCN(CCOc2ccc3ccc(=O)oc3c2)CC1)Nc1c2c(nc3ccccc13)CCCC2
Response: -0.31

Request: Short answer please: log10 IC50, Cholinesterase (Equus caballus, UniProt P81908), entry Cc1cc(=O)oc2cc(OCCN3CCN(CC(=O)Nc4c5c(nc6ccccc46)CCCC5)CC3)ccc12
Response: -0.63

Request: Short answer please: log10 IC50, Cholinesterase (Equus caballus, UniProt P81908), entry O=C(CN1CCN(CCCCCCOc2ccc3ccc(=O)oc3c2)CC1)Nc1c2c(nc3ccccc13)CCCC2
Response: -0.68

Request: Short answer please: log10 IC50, Cholinesterase (Equus caballus, UniProt P81908), entry COc1cc(=O)oc2cc(OCCN3CCN(CC(=O)Nc4c5c(nc6ccccc46)CCCC5)CC3)ccc12
Response: 0.71

---

- target_under_test: Cholinesterase (Equus caballus, UniProt P81908)
- Sequence (P81908 whole entry): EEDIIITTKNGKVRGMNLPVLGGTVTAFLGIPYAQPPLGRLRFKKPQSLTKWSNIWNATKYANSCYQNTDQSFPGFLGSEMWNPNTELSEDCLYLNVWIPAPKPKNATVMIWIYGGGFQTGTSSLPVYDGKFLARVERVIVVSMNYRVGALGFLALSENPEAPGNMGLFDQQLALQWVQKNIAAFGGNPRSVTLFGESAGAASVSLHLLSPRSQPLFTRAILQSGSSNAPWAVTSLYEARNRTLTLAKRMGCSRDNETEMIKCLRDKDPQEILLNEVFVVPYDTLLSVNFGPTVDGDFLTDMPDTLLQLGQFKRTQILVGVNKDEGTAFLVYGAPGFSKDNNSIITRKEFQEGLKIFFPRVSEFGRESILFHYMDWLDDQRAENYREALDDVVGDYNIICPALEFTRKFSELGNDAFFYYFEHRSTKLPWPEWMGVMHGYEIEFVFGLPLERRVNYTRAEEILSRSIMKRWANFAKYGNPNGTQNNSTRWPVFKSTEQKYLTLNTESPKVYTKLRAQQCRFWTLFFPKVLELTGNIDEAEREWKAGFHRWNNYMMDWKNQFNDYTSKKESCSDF
property_label: pIC50
Note on units: pIC50 is unitless, being -log10 of a concentration expressed in mol/L.

Request: Given the entry O=C(CN1CCN(CCCCOc2ccc3ccc(=O)oc3c2)CC1)Nc1c2c(nc3ccccc13)CCCC2 , report its measured pIC50.
Response: 6.51

Request: Given the entry COc1cc(=O)oc2cc(OCCCCCN3CCN(CC(=O)Nc4c5c(nc6ccccc46)CCCC5)CC3)ccc12 , report its measured pIC50.
Response: 6.14

Request: Given the entry O=C(CN1CCNCC1)Nc1c2c(nc3ccccc13)CCCC2 , report its measured pIC50.
Response: 4.66

Request: Given the entry O=C(CN1CCN(CCCCCCOc2ccc3c(-c4ccccc4)cc(=O)oc3c2)CC1)Nc1c2c(nc3ccccc13)CCCC2 , report its measured pIC50.
Response: 5.35

Request: Given the entry O=C(CN1CCN(CCCCOc2ccc3c(-c4ccccc4)cc(=O)oc3c2)CC1)Nc1c2c(nc3ccccc13)CCCC2 , report its measured pIC50.
Response: 5.74

Request: Given the entry O=C(CN1CCN(CCCCCOc2ccc3ccc(=O)oc3c2)CC1)Nc1c2c(nc3ccccc13)CCCC2 , report its measured pIC50.
Response: 6.67

Request: Given the entry O=C(CN1CCN(CCCOc2ccc3ccc(=O)oc3c2)CC1)Nc1c2c(nc3ccccc13)CCCC2 , report its measured pIC50.
Response: 6.36

Request: Given the entry Cc1cc(=O)oc2cc(OCCCN3CCN(CC(=O)Nc4c5c(nc6ccccc46)CCCC5)CC3)ccc12 , report its measured pIC50.
Response: 6.20

---

- target_under_test: Amyloid-beta precursor protein (Homo sapiens) (UniProt P05067)
- Sequence (P05067 whole entry): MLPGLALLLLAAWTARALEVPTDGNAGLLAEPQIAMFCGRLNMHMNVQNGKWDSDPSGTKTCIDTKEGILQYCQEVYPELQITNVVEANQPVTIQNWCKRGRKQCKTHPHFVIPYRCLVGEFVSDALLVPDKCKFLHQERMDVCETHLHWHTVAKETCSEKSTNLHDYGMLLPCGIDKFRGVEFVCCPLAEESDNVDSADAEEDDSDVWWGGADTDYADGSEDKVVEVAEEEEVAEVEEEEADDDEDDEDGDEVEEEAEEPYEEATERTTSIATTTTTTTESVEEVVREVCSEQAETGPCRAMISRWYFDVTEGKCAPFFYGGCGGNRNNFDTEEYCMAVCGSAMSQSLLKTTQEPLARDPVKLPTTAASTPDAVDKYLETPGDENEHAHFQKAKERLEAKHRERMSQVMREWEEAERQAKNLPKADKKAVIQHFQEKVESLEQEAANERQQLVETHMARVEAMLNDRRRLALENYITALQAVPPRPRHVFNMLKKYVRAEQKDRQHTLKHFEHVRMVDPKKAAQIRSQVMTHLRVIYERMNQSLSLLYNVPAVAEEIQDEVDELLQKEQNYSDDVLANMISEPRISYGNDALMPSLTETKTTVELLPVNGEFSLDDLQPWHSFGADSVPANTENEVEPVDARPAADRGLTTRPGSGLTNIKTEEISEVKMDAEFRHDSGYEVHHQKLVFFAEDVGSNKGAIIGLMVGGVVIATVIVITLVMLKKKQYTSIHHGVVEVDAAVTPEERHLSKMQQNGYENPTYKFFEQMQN
- condition_details: at 20 µM
inhibition of 30% or higher: 1. Under 30%: 0.

Request: For this compound, is measured inhibition 30% or higher? COc1cc(=O)oc2cc(O)ccc12
Response: 0

Request: For this compound, is measured inhibition 30% or higher? Cc1cc(=O)oc2cc(O)ccc12
Response: 0

Request: For this compound, is measured inhibition 30% or higher? Cc1cc(=O)oc2cc(OCCCN3CCN(CC(=O)Nc4c5c(nc6ccccc46)CCCC5)CC3)ccc12
Response: 1

Request: For this compound, is measured inhibition 30% or higher? COc1cc(=O)oc2cc(OCCCCN3CCN(CC(=O)Nc4c5c(nc6ccccc46)CCCC5)CC3)ccc12
Response: 0

Request: For this compound, is measured inhibition 30% or higher? O=C(CN1CCN(CCCCCCOc2ccc3ccc(=O)oc3c2)CC1)Nc1c2c(nc3ccccc13)CCCC2
Response: 1

Request: For this compound, is measured inhibition 30% or higher? O=C(CN1CCN(CCCCCCOc2ccc3c(-c4ccccc4)cc(=O)oc3c2)CC1)Nc1c2c(nc3ccccc13)CCCC2
Response: 0

Request: For this compound, is measured inhibition 30% or higher? O=C(CN1CCN(CCOc2ccc3c(-c4ccccc4)cc(=O)oc3c2)CC1)Nc1c2c(nc3ccccc13)CCCC2
Response: 0

Request: For this compound, is measured inhibition 30% or higher? O=c1cc(-c2ccccc2)c2ccc(O)cc2o1
Response: 0

Request: For this compound, is measured inhibition 30% or higher? COc1cc(=O)oc2cc(OCCN3CCN(CC(=O)Nc4c5c(nc6ccccc46)CCCC5)CC3)ccc12
Response: 0

Request: For this compound, is measured inhibition 30% or higher? O=C(CN1CCN(CCCCCOc2ccc3ccc(=O)oc3c2)CC1)Nc1c2c(nc3ccccc13)CCCC2
Response: 1

Request: For this compound, is measured inhibition 30% or higher? COc1cc(/C=C/C(=O)CC(=O)/C=C/c2ccc(O)c(OC)c2)ccc1O
Response: 1

Request: For this compound, is measured inhibition 30% or higher? O=C(CN1CCN(CCCOc2ccc3ccc(=O)oc3c2)CC1)Nc1c2c(nc3ccccc13)CCCC2
Response: 1

Request: For this compound, is measured inhibition 30% or higher? COc1cc(=O)oc2cc(OCCCN3CCN(CC(=O)Nc4c5c(nc6ccccc46)CCCC5)CC3)ccc12
Response: 1

Request: For this compound, is measured inhibition 30% or higher? Cc1cc(=O)oc2cc(OCCCCCN3CCN(CC(=O)Nc4c5c(nc6ccccc46)CCCC5)CC3)ccc12
Response: 1

Request: For this compound, is measured inhibition 30% or higher? O=C(CN1CCN(CCCCOc2ccc3ccc(=O)oc3c2)CC1)Nc1c2c(nc3ccccc13)CCCC2
Response: 1

Request: For this compound, is measured inhibition 30% or higher? Cc1cc(=O)oc2cc(OCCCCN3CCN(CC(=O)Nc4c5c(nc6ccccc46)CCCC5)CC3)ccc12
Response: 1

Request: For this compound, is measured inhibition 30% or higher? O=C(CN1CCN(CCCCOc2ccc3c(-c4ccccc4)cc(=O)oc3c2)CC1)Nc1c2c(nc3ccccc13)CCCC2
Response: 0

Request: For this compound, is measured inhibition 30% or higher? Cc1cc(=O)oc2cc(OCCCCCCN3CCN(CC(=O)Nc4c5c(nc6ccccc46)CCCC5)CC3)ccc12
Response: 1

Source listed as ChEMBL document CHEMBL2390867.
